test_system: DPP IV (Homo sapiens)
Sequence (P27487 whole entry, species assumed): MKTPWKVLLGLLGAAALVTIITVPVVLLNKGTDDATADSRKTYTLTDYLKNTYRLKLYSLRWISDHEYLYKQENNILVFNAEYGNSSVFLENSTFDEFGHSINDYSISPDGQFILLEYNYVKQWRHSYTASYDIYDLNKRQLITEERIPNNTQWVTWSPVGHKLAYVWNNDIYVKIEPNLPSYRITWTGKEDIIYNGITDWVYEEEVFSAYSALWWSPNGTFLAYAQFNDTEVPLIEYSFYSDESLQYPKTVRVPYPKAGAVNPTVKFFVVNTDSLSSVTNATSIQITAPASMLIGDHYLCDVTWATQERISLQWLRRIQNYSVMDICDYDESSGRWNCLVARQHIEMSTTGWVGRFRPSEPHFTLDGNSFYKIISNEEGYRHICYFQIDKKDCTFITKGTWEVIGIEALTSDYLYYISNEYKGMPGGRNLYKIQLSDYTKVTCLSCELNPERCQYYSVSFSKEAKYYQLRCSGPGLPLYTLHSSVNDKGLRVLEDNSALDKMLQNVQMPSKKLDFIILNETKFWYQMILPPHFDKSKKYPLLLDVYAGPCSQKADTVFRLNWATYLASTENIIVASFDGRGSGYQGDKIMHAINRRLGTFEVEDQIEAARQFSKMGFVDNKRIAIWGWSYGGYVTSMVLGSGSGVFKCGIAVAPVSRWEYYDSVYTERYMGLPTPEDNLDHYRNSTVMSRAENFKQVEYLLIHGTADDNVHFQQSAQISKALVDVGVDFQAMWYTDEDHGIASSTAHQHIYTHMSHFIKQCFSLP
assay_text: Stability against DPP IV enzyme
Type: in vitro ADME
test_settings: 2 μM, 37° C., 24 h
The entries below come with measured % degradation in 24 h when incubated with DPP-IV enzyme values attached.
Numbers only; they are read as %.

CCc1cc(OC)ccc1-c1ccc(CC(NC(=O)[C@H](CC(=O)O)NC(=O)[C@H](CO)NC(=O)[C@@H](NC(=O)[C@H](Cc2ccccc2)NC(=O)[C@@H](NC(=O)CNC(=O)[C@H](CCC(N)=O)NC(=O)C(C)(C)NC(=O)[C@@H](N)Cc2c[nH]cn2)[C@@H](C)O)[C@@H](C)O)C(=O)NC(Cc2ccc(-c3ccccc3C(F)(F)F)cc2)C(N)=O)cc1 (single isomer, unassigned) ... 00

# lookup: % degradation in 24 h when incubated with DPP-IV enzyme of CCc1cc(OC)ccc1-c1ccc(CC(NC(=O)[C@H](CC(=O)O)NC(=O)[C@H](CO)NC(=O)[C@@H](NC(=O)C(C)(Cc2ccccc2F)NC(=O)[C@@H](NC(=O)CNC(=O)[C@H](CCC(N)=O)NC(=O)[C@H](C)NC(=O)[C@@H](N)Cc2c[nH]cn2)[C@@H](C)O)[C@@H](C)O)C(=O)NC(Cc2ccc(-c3ccccc3C(F)(F)F)cc2)C(N)=O)cc1 (single isomer, unassigned)
72

----------
assay_text: Stability against liver microsomes
Assay type: in vitro ADME, human
test_settings: 2 μM, 37° C., 24 h
test_readout: % degradation in 24 h when incubated with liver microsomes (%)
Give the value, in units of %, as a plain number.

CCc1cc(OC)ccc1-c1ccc(CC(NC(=O)[C@H](CC(=O)O)NC(=O)[C@H](CO)NC(=O)[C@@H](NC(=O)C(C)(Cc2ccccc2F)NC(=O)[C@@H](NC(=O)CNC(=O)[C@H](CCC(N)=O)NC(=O)C(C)(C)NC(=O)[C@@H](N)Cc2c[nH]cn2)[C@@H](C)O)[C@@H](C)O)C(=O)NC(Cc2ccc(-c3ccccc3F)cc2)C(N)=O)cc1 (single isomer, unassigned) ... 31

Looking for the measured % degradation in 24 h when incubated with liver microsomes of CCc1cc(OC)ccc1-c1ccc(CC(NC(=O)[C@H](CC(=O)O)NC(=O)[C@H](CO)NC(=O)[C@@H](NC(=O)C(C)(Cc2ccccc2F)NC(=O)[C@@H](NC(=O)CNC(=O)[C@H](CCC(N)=O)NC(=O)C2(NC(=O)[C@@H](N)Cc3c[nH]cn3)CC2)[C@@H](C)O)[C@@H](C)O)C(=O)NC(Cc2ccc(-c3ccccc3F)cc2)C(N)=O)cc1 (single isomer, unassigned) , can you help?
26

----------
compounds and their reported half-life
test_system: UniProt P27487
assay_text: Stability against DPP IV enzyme
Assay type: in vitro ADME
test_settings: 2 μM, 37° C.; read-out: half-life (t1/2) with DPP-IV enzyme

// half-life lookup, key: CCc1cc(OC)ccc1-c1ccc(CC(NC(=O)[C@H](CC(=O)O)NC(=O)[C@H](CO)NC(=O)[C@@H](NC(=O)[C@H](Cc2ccccc2)NC(=O)[C@@H](NC(=O)CNC(=O)[C@H](CCC(N)=O)NC(=O)C2(NC(=O)[C@@H](N)Cc3c[nH]cn3)CC2)[C@@H](C)O)[C@@H](C)O)C(=O)NC(Cc2ccc(-c3ccccc3C)cc2)C(N)=O)cc1 (single isomer, unassigned)
> 24 h

Query (compound): CCc1cc(OC)ccc1-c1ccc(CC(NC(=O)[C@H](CC(=O)O)NC(=O)[C@H](CO)NC(=O)[C@@H](NC(=O)[C@H](Cc2ccccc2)NC(=O)[C@@H](NC(=O)CNC(=O)[C@H](CCC(N)=O)NC(=O)C2(NC(=O)[C@@H](N)Cc3c[nH]cn3)CC2)[C@@H](C)O)[C@@H](C)O)C(=O)NC(Cc2ccc(-c3ccccc3C)nc2)C(N)=O)cc1 (single isomer, unassigned) ; field requested: half-life
> 24 h

What value of half-life has been reported for the following compound? CCc1cc(OC)ccc1-c1ccc(CC(NC(=O)[C@H](CC(=O)O)NC(=O)[C@H](CO)NC(=O)[C@@H](NC(=O)C(C)(Cc2ccccc2F)NC(=O)[C@@H](NC(=O)CNC(=O)[C@H](CCC(N)=O)NC(=O)C2(NC(=O)[C@@H](N)Cc3c[nH]cn3)CC2)[C@@H](C)O)[C@@H](C)O)C(=O)NC(Cc2ccc(-c3ccccc3C(F)(F)F)cc2)C(N)=O)cc1 (single isomer, unassigned)
> 24 h
